Documented inhibition across a set of compounds
# system_name: Tyrosine-protein kinase Yes (Homo sapiens) (UniProt P07947);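 also: values are mean percent inhibition of YES kinase activity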
# Sequence (P07947 2-543 limits assumed): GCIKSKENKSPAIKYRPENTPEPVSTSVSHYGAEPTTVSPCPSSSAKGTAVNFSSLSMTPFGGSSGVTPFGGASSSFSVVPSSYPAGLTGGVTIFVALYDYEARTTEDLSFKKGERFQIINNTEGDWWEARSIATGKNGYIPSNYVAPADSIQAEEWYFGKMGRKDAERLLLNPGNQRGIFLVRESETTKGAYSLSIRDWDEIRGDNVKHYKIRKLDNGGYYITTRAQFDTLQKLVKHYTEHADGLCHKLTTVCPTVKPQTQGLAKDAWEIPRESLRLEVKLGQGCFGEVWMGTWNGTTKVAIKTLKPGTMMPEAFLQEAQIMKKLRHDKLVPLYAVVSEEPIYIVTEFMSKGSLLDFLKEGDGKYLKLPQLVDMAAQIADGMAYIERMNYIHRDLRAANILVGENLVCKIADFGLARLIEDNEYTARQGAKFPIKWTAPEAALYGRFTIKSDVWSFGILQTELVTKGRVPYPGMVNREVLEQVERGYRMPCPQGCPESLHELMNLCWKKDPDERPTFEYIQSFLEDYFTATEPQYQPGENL
# protocol_conditions: at 1 µM

smiles_repr | system_name | inhibition / %
CCn1c(-c2nonc2N)nc2c(C#CC(C)(C)O)ncc(OC[C@@H]3CCCN3)c21 | Tyrosine-protein kinase Yes (Homo sapiens) (UniProt P07947) | 2.07
CCn1c(-c2nonc2N)nc2c(C#CC(C)(C)O)nc(O[C@@H](CN)c3ccccc3)cc21 | Tyrosine-protein kinase Yes (Homo sapiens) (UniProt P07947) | 23.8
NS(=O)(=O)c1ccc(N/C=C2\C(=O)Nc3ccc4ncsc4c32)cc1 | Tyrosine-protein kinase Yes (Homo sapiens) (UniProt P07947) | 26.7
Nc1nonc1-c1nc2cnccc2n1C1CCCCC1 | Tyrosine-protein kinase Yes (Homo sapiens) (UniProt P07947) | 3.33
Fc1ccc(-c2ncn(C3CCNCC3)c2-c2ccnc(Oc3ccccc3)n2)cc1 | Tyrosine-protein kinase Yes (Homo sapiens) (UniProt P07947) | -0.9
CCn1c(-c2nonc2N)nc2c(C#CC(C)(C)O)ncc(OCC3CCNCC3)c21 | Tyrosine-protein kinase Yes (Homo sapiens) (UniProt P07947) | 6.72
COc1cccc(-n2ncc3c(N/N=C/c4ccncc4)ncnc32)c1 | Tyrosine-protein kinase Yes (Homo sapiens) (UniProt P07947) | 73
COc1cc2c(cc1Nc1nc(Nc3ccsc3C(N)=O)c3cc[nH]c3n1)N(C(=O)CN(C)C)CCC2 | Tyrosine-protein kinase Yes (Homo sapiens) (UniProt P07947) | 2.18
CCn1c(-c2nonc2N)nc2c(C#CCN)ncc(OCCCN)c21 | Tyrosine-protein kinase Yes (Homo sapiens) (UniProt P07947) | 3.6
